experimental system: T1, full-length human GIPR with an N-terminal FLAG tag (human, UniProt P48546 22-466)
T1 sequence (looked up): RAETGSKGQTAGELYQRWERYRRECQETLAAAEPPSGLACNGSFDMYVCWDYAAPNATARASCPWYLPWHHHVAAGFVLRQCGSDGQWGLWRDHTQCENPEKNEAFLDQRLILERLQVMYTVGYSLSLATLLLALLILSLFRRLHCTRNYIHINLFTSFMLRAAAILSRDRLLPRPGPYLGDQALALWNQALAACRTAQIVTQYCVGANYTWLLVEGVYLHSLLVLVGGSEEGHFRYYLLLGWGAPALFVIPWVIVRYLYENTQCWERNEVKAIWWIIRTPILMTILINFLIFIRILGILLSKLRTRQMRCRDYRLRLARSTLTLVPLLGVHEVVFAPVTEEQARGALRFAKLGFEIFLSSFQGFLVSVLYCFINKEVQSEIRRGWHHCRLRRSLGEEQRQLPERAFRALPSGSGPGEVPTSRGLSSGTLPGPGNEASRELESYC
assay text: cell-based or functional assay
Starred links: 1 amine or outer side, 2 acyl side, 3 side chain; linkers in the order of their positions; H or OH if unused. Non-standard residues stand in square brackets, D forms with d. Groups on a side chain read outwards from the residue. No end group written: not given here. *: point of attachment. GGEEE‑C15DA = Gly-Gly-Glu-Glu-Glu linker (GGEEE) joined to a C15 diacid lipid (C15DA), on the Lys side chain; 2OEGgE‑C16DA = O=C(O)CCCCCCCCCCCCCCC(=O)N[C@@H](CCC(=O)NCCOCCOCC(=O)NCCOCCOCC(=O)*)C(=O)O; 2OEGgE = O=C(CC[C@H](N[*:1])C(=O)O)NCCOCCOCC(=O)NCCOCCOCC(=O)[*:2]; G2E3 = linker of 2 Gly and 3 Glu (read GGEEE); C16 diacid = O=C(O)CCCCCCCCCCCCCCC(=O)*; C15 diacid = O=C(O)CCCCCCCCCCCCCC(=O)*; γGlu = O=C(O)[C@H](CCC(=O)[*:2])N[*:1]; NMeY = CN[C@@H](Cc1ccc(O)cc1)C(=O)O; AEEA = NCCOCCOCC(=O)O; Aib = CC(C)(N)C(=O)O
recorded metric: Human GIPR cAMP, HEK293T EC50 (pM)
Could you give me the number in pM? Just the number is fine.

binder: [NMeY][Aib]EGTFISDYSIALDR[Aib]AQ[Aib]KFVNWLLAQRPSSGAPPPS-NH2 (not fully specified (residue 21)) [Compound 130]
endpoint unit: pM
Human GIPR cAMP, HEK293T EC50: 0.4

binder: [NMeY][Aib]EGTFISDYSIALDR[Aib]AQ[Aib]K([AEEA-γGlu-γGlu-γGlu-C15 diacid])FVNWLL[Aib]QK-OH (not fully specified) [Compound 40]
endpoint unit: pM
Human GIPR cAMP, HEK293T EC50: 0.8

binder: Me-Y[Aib]EGTFISDYSI[Aib]KDR[Aib]AQ[Aib]DFVNWLLAQSPSSGAPPPS-OH (not fully specified (residues 1, 14)) [Compound 156]
endpoint unit: pM
Human GIPR cAMP, HEK293T EC50: 0.2

(Q) GET /values?readout=Human GIPR cAMP, HEK293T EC50&item= Me-Y[Aib]EGTFISDYSIAKDR[Aib]AQ[Aib]NFVNWLLAQRPSSGAPPPS-OH (not fully specified (residues 1, 14)) [Compound 147]
(A) 1.1

(Q) Data request, read-out Human GIPR cAMP, HEK293T EC50, for Y[Aib]EGTFISDYSIALDR[Aib]AQ[Aib]NFVNWLLAQK([AEEA-γGlu-γGlu-γGlu-C15 diacid]) (not fully specified (residue 1, N-terminus); also: Me-Tyr methyl position not given here) [Compound 43]
(A) 0.3

(Q) Name the recorded Human GIPR cAMP, HEK293T EC50 for [NMeY][Aib]EGTFISDYSIALDRIHQ[Aib]NFVNWLLK(2OEGgE‑C16DA)QK [Compound 10] .
(A) 0.6

(Q) Can you look up the measured Human GIPR cAMP, HEK293T EC50 of [NMeY][Aib]EGTFISDYSIALDR[Aib]K([G5gE-C15 diacid])Q[Aib]DFVNWLLAQRPSSGAPPPS-NH2 [Compound 73] for me?
(A) 0.5

(Q) What value of Human GIPR cAMP, HEK293T EC50 has been reported for the following binder? [NMeY]GEGTFISDYSIAK([2OEGgE-C16 diacid])DRIHQ[Aib]NFVNWLLAQK (not fully specified) [Compound 6]
(A) 53.7

(Q) Consider the binder [NMeY][Aib]EGTFISDYSI[Aib]LDRK([AEEA-AEEA-γGlu-γGlu-C16 diacid])AQ[Aib]NFVNWLLAQRPSSGAPPPS-NH2 [Compound 145] and give its measured Human GIPR cAMP, HEK293T EC50.
(A) 0.4

(Q) Reported Human GIPR cAMP, HEK293T EC50, binder [NMeY][Aib]EGTFISDYSIALDR[Aib]K(GGEEE‑C15DA)Q[Aib]NFVNWLLAQSPSSGAPPPS-NH2 [Compound 105] : ____
(A) 0.3

(Q) Fill in: Human GIPR cAMP, HEK293T EC50 of [NMeY][Aib]EGTFISDYSIALDR[Aib]K([G2E3-C15 diacid])Q[Aib]NFVNWLLAQK-OH (not fully specified (N-terminus)) [Compound 42] is ___
(A) 0.6

(Q) // Human GIPR cAMP, HEK293T EC50 lookup, key: [NMeY][Aib]EGTFISDYSIALDR[Aib]AQ[Aib]NFVNWLLAK([AEEA-AEEA-γGlu-C15 diacid])K-OH (not fully specified) [Compound 34]
(A) 0.3

(Q) Please look up its Human GIPR cAMP, HEK293T EC50: [NMeY][Aib]EGTFISDYSI[Aib]LDRKAQ[Aib]NFVNWLLAQRPSSGAPPPS-NH2 (not fully specified (residue 17)) [Compound 122]
(A) 0.4

(Q) Which Human GIPR cAMP, HEK293T EC50 value belongs to Me-Y[Aib]EGTFISDYSIAKDR[Aib]AQ[Aib]DFVNWLLAQSPSSGAPPPS-OH (not fully specified (residues 1, 14)) [Compound 155] ?
(A) 0.3

(Q) Human GIPR cAMP, HEK293T EC50 for Me-Y[Aib]EGTFISDYSIAKDS[Aib]AQ[Aib]NFVNWLLAQSPSSGAPPPS-NH2 (not fully specified (residues 1, 14)) [Compound 154] ?
(A) 0.3

(Q) Which Human GIPR cAMP, HEK293T EC50 is listed for Me-Y[Aib]EGTFISDYSIAK([AEEA-γGlu-γGlu-γGlu-C15 diacid])DR[Aib]AQ[Aib]NFVNWLLAQK-NH2 [Compound 23] ?
(A) 0.4

(Q) For [NMeY][Aib]EGTFISDYSIALDR[Aib]AQ[Aib]NFVNWLLAQK([G2E3-C15 diacid])PSSGAPPPS-OH [Compound 32] , what is its reported Human GIPR cAMP, HEK293T EC50?
(A) 0.2
